# Test system: Moloney murine sarcoma virus
# TEST DESCRIPTION: Effective concentration against Moloney sarcoma virus
# Format: functional, organism-based, Viruses
Task for the reader: assign each of the following compounds its reported pEC50.
Value format note: pEC50 is -log10 of concentration (mol/L); just state the number.

Asked: Field request: pEC50 | item: `CN[C@H](CC(C)C)C(=O)N[C@H]1C(=O)N[C@@H](CC(N)=O)C(=O)N[C@H]2C(=O)N[C@H]3C(=O)N[C@H](C(=O)N[C@H](C(=O)NCC45CC6CC(CC(C6)C4)C5)c4cc(O)cc(O)c4-c4cc3ccc4O)[C@H](O)c3ccc(c(Cl)c3)Oc3cc2cc(c3O)Oc2ccc(cc2Cl)[C@H]1O`
Given back: 5.00

Asked: What value of measured pEC50 is listed for `NCCCCCCCCCCNC(=O)[C@H]1NC(=O)[C@H]2NC(=O)[C@H](NC(=O)[C@@H]3NC(=O)[C@H](CC(N)=O)NC(=O)[C@H](N)[C@H](O)c4ccc(cc4)Oc4cc3cc(c4O)Oc3ccc(cc3)[C@H]2O)c2ccc(O)c(c2)-c2c(O)cc(O)cc21` ?
Given back: 5.11

Asked: Returns the measured pEC50 for the input compound. Input: `NC(=O)C[C@@H]1NC(=O)[C@H](N)[C@H](O)c2ccc(cc2)Oc2cc3cc(c2O)Oc2ccc(cc2)[C@@H](O)[C@@H]2NC(=O)[C@H](NC(=O)[C@@H]3NC1=O)c1ccc(O)c(c1)-c1c(O)cc(O)cc1[C@@H](C(=O)NCC13CC4CC(CC(C4)C1)C3)NC2=O`
Given back: 5.59

----------
# System: Enterococcus faecium
# TEST DESCRIPTION: Minimum inhibitory concentration against glycopeptide susceptible enterococci 568 Enterococcus faecium
# Type: functional
OBSERVATION TYPE: MIC (µg/mL)
Number only, in µg/mL; omit the unit.

Asked: If you can, please state the reported MIC value of `CN[C@H](CC(C)C)C(=O)N[C@H]1C(=O)N[C@@H](CC(N)=O)C(=O)N[C@H]2C(=O)N[C@H]3C(=O)N[C@H](C(=O)N[C@H](C(=O)NCCCCCCCCCCN)c4cc(O)cc(O)c4-c4cc3ccc4O)[C@H](O)c3ccc(cc3)Oc3cc2cc(c3O)Oc2ccc(cc2Cl)[C@H]1O` .
Given back: 8

----------
Would you mind telling me the reported MIC of each entry?
# Test system: Staphylococcus epidermidis
# TEST DESCRIPTION: Minimum inhibitory concentration against 533 Staphylococcus epidermidis
# Format: functional
Use µg/mL as the unit, but write only the number.

Asked: What does the data say about its MIC? Entry: CN[C@H](CC(C)C)C(=O)N[C@H]1C(=O)N[C@@H](CC(N)=O)C(=O)N[C@H]2C(=O)N[C@H]3C(=O)N[C@H](C(=O)N[C@H](C(=O)NC4C5CC6CC(C5)CC4C6)c4cc(O)cc(O)c4-c4cc3ccc4O)[C@H](O)c3ccc(c(Cl)c3)Oc3cc2cc(c3O)Oc2ccc(cc2Cl)[C@H]1O (some centres undefined)
Given back: 4

Asked: Fill blank: measured MIC of the molecule `CN[C@H](CC(C)C)C(=O)N[C@H]1C(=O)N[C@@H](CC(N)=O)C(=O)N[C@H]2C(=O)N[C@H]3C(=O)N[C@H](C(=O)N[C@H](C(=O)NCCCCCCCCCCN)c4cc(O)cc(O)c4-c4cc3ccc4O)[C@H](O)c3ccc(cc3)Oc3cc2cc(c3O)Oc2ccc(cc2)[C@H]1O` is ____.
Given back: 16

Asked: Look up MIC for this molecule: `CN[C@H](CC(C)C)C(=O)N[C@H]1C(=O)N[C@@H](CC(N)=O)C(=O)N[C@H]2C(=O)N[C@H]3C(=O)N[C@H](C(=O)N[C@H](C(=O)NCC45CC6CC(CC(C6)C4)C5)c4cc(O)cc(O)c4-c4cc3ccc4O)[C@H](O)c3ccc(c(Cl)c3)Oc3cc2cc(c3O)Oc2ccc(cc2Cl)[C@H]1O`
Given back: 2

Asked: Form field: reported MIC of `CN[C@H](CC(C)C)C(=O)N[C@H]1C(=O)N[C@@H](CC(N)=O)C(=O)N[C@H]2C(=O)N[C@H]3C(=O)N[C@H](C(=O)N[C@H](C(=O)O)c4cc(O)cc(O)c4-c4cc3ccc4O)[C@H](O)c3ccc(c(Cl)c3)Oc3cc2cc(c3O)Oc2ccc(cc2Cl)[C@H]1O`
Given back: 4

Asked: Which MIC value is on record for `CN[C@H](CC(C)C)C(=O)N[C@H]1C(=O)N[C@@H](CC(N)=O)C(=O)N[C@H]2C(=O)N[C@H]3C(=O)N[C@H](C(=O)N[C@H](C(=O)NCC45CC6CC(CC(C6)C4)C5)c4cc(O)cc(O)c4-c4cc3ccc4O)[C@H](O)c3ccc(cc3)Oc3cc2cc(c3O)Oc2ccc(cc2Cl)[C@H]1O` ?
Given back: 8

Asked: // query MIC value for entry `CN[C@H](CC(C)C)C(=O)N[C@H]1C(=O)N[C@@H](CC(N)=O)C(=O)N[C@H]2C(=O)N[C@H]3C(=O)N[C@H](C(=O)N[C@H](C(=O)O)c4cc(O)cc(O)c4-c4cc3ccc4O)[C@H](O)c3ccc(cc3)Oc3cc2cc(c3O)Oc2ccc(cc2Cl)[C@H]1O`
Given back: 32

Asked: Need MIC of `CN[C@H](CC(C)C)C(=O)N[C@H]1C(=O)N[C@@H](CC(N)=O)C(=O)N[C@H]2C(=O)N[C@H]3C(=O)N[C@H](C(=O)N[C@H](C(=O)NCC45CC6CC(CC(C6)C4)C5)c4cc(O)cc(O)c4-c4cc3ccc4O)[C@H](O)c3ccc(cc3)Oc3cc2cc(c3O)Oc2ccc(cc2)[C@H]1O` , thanks.
Given back: 8

Asked: Name the reported MIC value associated with the molecule `CN[C@H](CC(C)C)C(=O)N[C@H]1C(=O)N[C@@H](CC(N)=O)C(=O)N[C@H]2C(=O)N[C@H]3C(=O)N[C@H](C(=O)N[C@H](C(=O)O)c4cc(O)cc(O)c4-c4cc3ccc4O)[C@H](O)c3ccc(cc3)Oc3cc2cc(c3O)Oc2ccc(cc2)[C@H]1O`
Given back: 32

Asked: Name the recorded MIC for `CN[C@H](CC(C)C)C(=O)N[C@H]1C(=O)N[C@@H](CC(N)=O)C(=O)N[C@H]2C(=O)N[C@H]3C(=O)N[C@H](C(=O)N[C@H](C(=O)NCCCCCCCCCCN)c4cc(O)cc(O)c4-c4cc3ccc4O)[C@H](O)c3ccc(cc3)Oc3cc2cc(c3O)Oc2ccc(cc2Cl)[C@H]1O` .
Given back: 8
